# TARGET: Schistosoma mansoni thioredoxin glutathione reductase (TGR)
# PROTOCOL: qHTS Assay for the Inhibitors of Schistosoma Mansoni Peroxiredoxins; also: nearly all actives have a fitted effect of over 60% in size; also: potency is read from the fitted curve at half-maximal effect
# CONDITION_DETAILS: purified TGR, DTNB reduction, TNB absorbance 405 nm; series mostly up to 114 µM
# Excerpt: Schistosomiasis is a major neglected tropical disease that currently affects over 200 million. It is caused by different species of flatworms, such as Schistosoma mansoni. […] In addition, the fluorescence assay was also subject to fluorescence interference from compound library members. […] The assay followed the reduction of 5, 5'-dithiobis (2-nitrobenzoic acid) (DTNB) (Ellman's reagent) by NADPH and measured the increase in absorbance at 412 nm of the reaction product, TNB. […]
Hit rate of the full screen: of about 360,000 compounds, about 11,000 (3.1%) were called active. Inconclusive results (about 4%) are left out. For the sample, actives were picked, then their nearest neighbours and some compounds at random.
OUTCOME_MEASURE: Potency

Here are 6 compounds together with their reported answers.
{"COMPOUND": "O=C(NNC(=S)Nc1ccc(Br)cc1Cl)c1ccco1", "TARGET": "Schistosoma mansoni thioredoxin glutathione reductase (TGR)", "Potency": "inactive"}
{"COMPOUND": "COc1ccc(Cl)cc1C(=O)NNC(=S)NC(=O)/C=C/c1ccco1", "TARGET": "Schistosoma mansoni thioredoxin glutathione reductase (TGR)", "Potency": "inactive"}
{"COMPOUND": "O=C(/C=C/c1ccco1)NC(=S)N1CCCCC1", "TARGET": "Schistosoma mansoni thioredoxin glutathione reductase (TGR)", "Potency": "25.1 µM (active)"}
{"COMPOUND": "Cc1ccc(S(=O)(=O)N2CCC(C(=O)Nc3cc(C)ccc3C)CC2)cc1", "TARGET": "Schistosoma mansoni thioredoxin glutathione reductase (TGR)", "Potency": "inactive"}
{"COMPOUND": "COc1ccc2cc(CCl)c(Cl)nc2c1", "TARGET": "Schistosoma mansoni thioredoxin glutathione reductase (TGR)", "Potency": "31.6 µM (active)"}
{"COMPOUND": "Cn1c(=O)c(Sc2ccc(Cl)cc2)c(O)c2ccccc21", "TARGET": "Schistosoma mansoni thioredoxin glutathione reductase (TGR)", "Potency": "inactive"}

Could you please provide reported Potency for CCCCNC(=O)c1ccc2c(c1)NC(=O)C(C(C)C)N2 (stereo unspecified) ? Thanks!
inactive

Please look at this compound and report its Potency: COc1ccc2oc(-c3cccc(NC(=O)CSc4ccc(Cl)cc4)c3)nc2c1
inactive

// fetch Potency given entry Cc1cccc(Oc2c([N+](=O)[O-])c(=O)n(C)c3ccccc23)c1
3.98 µM (active)

Please list Potency recorded for the compound O=C(/C=C/c1ccco1)NC(=S)Nc1ccccc1Br
35.5 µM (active)

Please give measured Potency of the following entry: Cc1cccc(C2CC(=O)Oc3c2c(=O)n(C)c2ccccc32)c1 (stereo unspecified)
inactive
